Biological target: T1, cynomolgus TREM-1 (cTREM-1) protein (cynomolgus monkey)
T1 construct: also called cyno TREM-1
T1 chain: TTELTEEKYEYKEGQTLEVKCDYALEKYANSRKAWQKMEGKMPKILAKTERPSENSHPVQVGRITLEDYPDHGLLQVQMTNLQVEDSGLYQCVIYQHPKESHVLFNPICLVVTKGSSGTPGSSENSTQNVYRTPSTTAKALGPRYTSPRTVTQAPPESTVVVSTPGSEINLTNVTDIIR
Test: SPR, mAb captured by anti-Fc, cTREM-1 as analyte
Result Type: pKd
// pKd here means minus log10 of the molar concentration (mol/L)

Reference set, count: 3
mAb 0124 (antibody, V domains shown, Recombinant; LC G68R (Kabat) in CDR grafted 14F113; also called 14F113/14F69 hz variant LC G68R; 14F113 hz variant LC G68R) VH: EVQLVESGGGLVQPGGSLKLSCAASGFTFSTYAMHWVRQASGKGLEWVGRIRTKSSNYATYYAASVKGRFTISRDDSKNTAYLQMNSLKTEDTAVYYCTRDMGQRRQFAYWGQGTLVTVSS VL: DIVMTQSPDSLAVSLGERATINCRASESVDTFDYSFLHWYQQKPGQPPKLLIYRASNLESGVPDRFSGSGSRTDFTLTISSLQAEDVAVYYCQQSNEDPYTFGQGTKLEIK	8.96
mAb 0059 (antibody, IgG1, V domains shown, Recombinant; also called 14F113/14F69; 14F113A1B1C1 (recombinant)) VH: EVQLVESGGGLVQPKGSLKLSCGASDFTFNTYAMHWVRQAPGMALEWVARIRTKSSNYATYYADSVKDRFTISRDDSQNMLYLQMNNLKTEDTAMYYCVRDMGQRRQFAYWGQGTLVTVSA VL: DIVLTQSPASLAVSLGQRATISCRASESVDTFDYSFLHWYQQKPGQPPKLLIYRASNLESGIPARFSGSGSRTDFTLTINPVEADDVATYYCQQSNEDPYTFGGGTKLEIER	9.17
mAb 0068 (antibody, V domains shown, Recombinant; also called 14F128/14F11 (recombinant)) VH: EVQLVESGGGLVQPKGSLKLSCAASGFTFNTYAMHWVRQAPGKGLEWVARIRTKSNNYATYYVDSVKDRITISRDDSQSMLYLQMNNLKTEDTAMYYCVRDMGIRRQFAYWGQGTLVTVSA VL: DIVLTQSPASLAVSLGQRATISCRASESVDSFGISFMHWYQQSPGQPPKLLIYRASNLESGIPARFSGSGSRTDFTLTINPVEADDVATYYCQQSNEDPYTFGGGTKLEIKR	7.92

Could you now look at the following binder, please?
Lookup: What does the data say about its pKd? Entry: mAb 0170 (antibody, human IgG4 S228P, kappa, V domains shown, Final humanised antibody from hybridoma 14F113 with LC M4L back-mutation and HC CDR3 Q98I (Kabat); also called 14F113/14F69 hz variant LC Q98I) VH: EVQLVESGGGLVQPGGSLKLSCAASGFTFSTYAMHWVRQASGKGLEWVGRIRTKSSNYATYYAASVKGRFTISRDDSKNTAYLQMNSLKTEDTAVYYCTRDMGIRRQFAYWGQGTLVTVSS VL: DIVLTQSPDSLAVSLGERATINCRASESVDTFDYSFLHWYQQKPGQPPKLLIYRASNLESGVPDRFSGSGSGTDFTLTISSLQAEDVAVYYCQQSNEDPYTFGQGTKLEIKR
Found: 8.44
